# System: KM mice
# MEASUREMENT_NOTES: ED50 and LD50 test concerning anesthesia (sequential method) in mice
# Format: in vivo
# RUN_CONDITIONS: caudal vein injection, 6 mg/ml solution, first test
// values below are reported Mouse LD50
PARAMETER: Mouse LD50 (mg/kg)

CC(C)c1cccc(C(C)C)c1OC(=O)C(F)CC(=O)[O-].[Na+] (stereo not shown): 51.2
CC(C)c1cccc(C(C)C)c1OC(=O)C(F)CCC(=O)[O-].[Na+] (racemic): 49.7
CC(C)c1cccc(C(C)C)c1OC(=O)[C@H](F)CCN(C)C.Cl [Compound E2]: 55.1
CC(C)c1cccc(C(C)C)c1OC(=O)[C@@H](F)CCOP(=O)([O-])[O-].[Na+].[Na+]: 48.7

====

# MEASUREMENT_NOTES: In vitro dissociation of the water soluble taxane derivatives in blood plasma of rabbit
# Assay type: in vitro ADME, New Zealand white rabbits
# RUN_CONDITIONS: 37° C., 5 min
PARAMETER: dissociation percent (%)

CO[C@H]1C(=O)[C@]2(C)[C@@H](OC)C[C@H]3OC[C@@]3(OC(C)=O)[C@H]2[C@H](OC(=O)c2ccccc2)[C@]2(O)C[C@H](OC(=O)[C@H](OC(=O)[C@H](F)CCN(C)C)[C@@H](NC(=O)OC(C)(C)C)c3ccccc3)C(C)=C1C2(C)C.CS(=O)(=O)O: 78.4
CC(=O)O[C@@]12CO[C@@H]1C[C@H](O)[C@@]1(C)C(=O)[C@H](O)C3=C(C)[C@@H](OC(=O)[C@H](OC(=O)C(F)CCN(C)C)[C@@H](NC(=O)OC(C)(C)C)c4ccccc4)C[C@@](O)([C@@H](OC(=O)c4ccccc4)[C@H]21)C3(C)C.Cl (stereo partly shown): 75.6
CO[C@H]1C(=O)[C@]2(C)[C@@H](OC)C[C@H]3OC[C@@]3(OC(C)=O)[C@H]2[C@H](OC(=O)c2ccccc2)[C@]2(O)C[C@H](OC(=O)[C@H](OC(=O)C(F)CCN(C)C)[C@@H](NC(=O)OC(C)(C)C)c3ccccc3)C(C)=C1C2(C)C.CS(=O)(=O)O (stereo partly shown): 81.2
CO[C@H]1C(=O)[C@]2(C)[C@@H](OC)C[C@H]3OC[C@@]3(OC(C)=O)[C@H]2[C@H](OC(=O)c2ccccc2)[C@]2(O)C[C@H](OC(=O)[C@H](OC(=O)[C@@H](F)CCN(C)C)[C@@H](NC(=O)OC(C)(C)C)c3ccccc3)C(C)=C1C2(C)C.Cl: 89.9

====

# System: KM mice
# MEASUREMENT_NOTES: ED50 and LD50 test concerning anesthesia (sequential method) in mice
# Assay type: in vivo
# RUN_CONDITIONS: 6 mg/ml solution, confirmation test
// values below are reported TI Mouse
PARAMETER: TI Mouse

CC(C)c1cccc(C(C)C)c1OC(=O)C(F)CCC(=O)[O-].[Na+] (racemic): 3.3
CC(C)c1cccc(C(C)C)c1OC(=O)[C@H](F)CCN(C)C.Cl [Compound E2]: 3.7
CC(C)c1cccc(C(C)C)c1OC(=O)[C@@H](F)CCOP(=O)([O-])[O-].[Na+].[Na+]: 2.3
CC(C)c1cccc(C(C)C)c1O [Propofol, reference compound]: 3.8
CC(C)c1cccc(C(C)C)c1OC(=O)C(F)CC(=O)[O-].[Na+] (centres unmarked): 3.1
